System: phospho-p90 RSK (RSK1 Thr359/Ser363) in A375 (Braf V600E) cells
Experiment: Phospho-p90 RSK ELISA using A375 (Braf V600E) cells
Format: cell-based
Conditions: Homo sapiens, A-375, 2 hours compound treatment, read-out: Cellular Phospho-p90RSK IC50
Procedure: In preparation for the assay, an ELISA plate with the pre-coated goat anti-mouse antibody (Thermo Scientific) was treated with a mouse anti-human RSK1 antibody (monoclonal, Invitrogen) at 1:800 dilution (150 ng/well) in PBS, and the plate was placed on a plate shaker at 4° C. overnight. […] Finally, 100 μL of TMB stop solution (Thermo Scientific) was added to each well and the absorbance is measured at 450 nm on a Tecan plate reader.
measured_metric: IC50

Examples with answers:
Cc1cc(-c2n[nH]c3cc4c(cc23)CN([C@@H]2CCCN(C(C)C)C2)C(=O)N4)ccn1 [Example 247]: > 1000 nM
Cc1cc(-c2n[nH]c3cc4c(cc23)CN([C@@H]2CCCN(Cc3ccc(F)cc3F)C2)C(=O)N4)ccn1 [Example 196]: ≤ 250 nM
Cc1cnccc1-c1n[nH]c2cc3[nH]c(=O)c(C(C)c4ccccc4)cc3cc12 (stereo not shown) [Example 343]: > 1000 nM

Sample Cc1cc(-c2n[nH]c3cc4c(cc23)CN(Cc2cccc(Cl)c2)C(=O)N4)cc(C)n1 [Example 77] — what was its IC50?
≤ 250 nM

Sample Cc1cc(-c2n[nH]c3cc4c(cc23)CN(C2CCCC2)C(=O)N4)ccn1 [Example 205] — what was its IC50?
≤ 250 nM

Sample Cc1cc(-c2n[nH]c3cc4[nH]c(=O)c(C(C)C5CCCCC5)cc4cc23)ccn1 (stereo not shown) [Example 160] — what was its IC50?
> 1000 nM

Sample Cc1cc(-c2n[nH]c3cc4c(cc23)CN([C@@H]2CN(CCC#N)C[C@H]2c2ccccc2)C(=O)N4)ccn1 (mixture of isomers) [Example 356] — what was its IC50?
≤ 250 nM

----------
tested on: phospho-p90 RSK (RSK1 Thr359/Ser363) in A375 (Braf V600E) cells; assay: Phospho-p90 RSK ELISA using A375 (Braf V600E) cells; type: cell-based; details: Homo sapiens, A-375, 2 hours compound treatment, read-out: Cellular Phospho-p90RSK IC50
pIC50: −log10 of the molar value.
Entries annotated with measured pIC50

Examples with answers:
COc1cc(-c2n[nH]c3cc4[nH]c(=O)c(C5CCCN(Cc6ccccc6)C5)cc4cc23)ccn1 (stereo not shown): ≥ 6.60
O=C1Nc2cc3[nH]nc(-c4ccc(F)cc4)c3cc2CN1Cc1ccc(F)c(Cl)c1: < 6.00
Cc1cc(-c2n[nH]c3cc4c(cc23)CN([C@@H]2CN(CC(F)(F)F)C[C@H]2c2ccccc2F)C(=O)N4)ccn1 (racemic): ≥ 6.60

Sample CC(C)c1cc(-c2n[nH]c3cc4c(cc23)CN(Cc2cccc(Cl)c2)C(=O)N4)ccn1 — what was its pIC50?
6.00 to 6.60

Sample COc1ncc(-c2n[nH]c3cc4c(cc23)CN([C@H]2CCCN(Cc3ccccc3)C2)C(=O)N4)cn1 — what was its pIC50?
< 6.00

Sample Cc1cc(-c2n[nH]c3cc4c(cc23)CN(C2CCN(CCc3ccccc3)CC2)C(=O)N4)ccn1 — what was its pIC50?
< 6.00

Sample Cc1cc(-c2n[nH]c3cc4c(cc23)CN(Cc2cscn2)C(=O)N4)ccn1 — what was its pIC50?
6.00 to 6.60

----------
test system: phospho-p90 RSK (RSK1 Thr359/Ser363) in A375 (Braf V600E) cells; assay: Phospho-p90 RSK ELISA using A375 (Braf V600E) cells; format: cell-based; conditions: Homo sapiens, A-375, 2 hours compound treatment, read-out: Cellular Phospho-p90RSK IC50
pIC50: −log10 of the molar value.
Entries annotated with measured pIC50

Cc1cc(-c2n[nH]c3cc4c(cc23)CN([C@@H]2CCCN(CC3CC5CCC3C5)C2)C(=O)N4)ccn1 (stereo partly shown): ≥ 6.60
Cc1cc(-c2n[nH]c3cc4c(cc23)CN(CCc2cccc(Cl)c2)C(=O)N4)ccn1: ≥ 6.60
Cc1cc(-c2n[nH]c3cc4c(cc23)CN([C@@H]2CN(CC(F)(F)F)C[C@H]2C(C)C)C(=O)N4)ccn1 (mixture of isomers): 6.00 to 6.60

Sample C[C@H](c1ccc(Cl)cc1)N1Cc2cc3c(-c4ccnnc4)n[nH]c3cc2NC1=O — what was its pIC50?
6.00 to 6.60

----------
test system: A375 cells; assay: Tumor cell line proliferation assay (CellTiter Glo), A375; assay type: cell-based; conditions: Homo sapiens, A-375, 96 h, read-out: A375 (V599E) Cell Proliferation IC50
measured_metric: IC50

Examples with answers:
Cc1cc(-c2n[nH]c3cc4c(cc23)CN([C@H](C)c2ccccc2)C(=O)N4)ccn1: 250 to 1000 nM
O=C1Nc2cc3[nH]nc(-c4ccncc4)c3cc2CN1Cc1cccc(Cl)c1: ≤ 250 nM
Cc1cc(-c2n[nH]c3cc4c(cc23)CN(Cc2cc(F)cc(F)c2)C(=O)N4)cc(C)n1: ≤ 250 nM
Cc1cc(-c2n[nH]c3cc4c(cc23)CN([C@@H]2CCCN(CC(F)(F)F)C2)C(=O)N4)ccn1: 250 to 1000 nM

Sample COc1ncc(-c2n[nH]c3cc4c(cc23)CN(C2CN(Cc3ccccc3)CC(F)(F)C2)C(=O)N4)cn1 (stereo not shown) — what was its IC50?
250 to 1000 nM

Sample Cc1cc(-c2n[nH]c3cc4c(cc23)CN([C@H]2CN(Cc3ccccc3)CC(F)(F)C2)C(=O)N4)ccn1 — what was its IC50?
≤ 250 nM

Sample Cc1cc(-c2n[nH]c3cc4c(cc23)CN([C@@H]2CCCN(Cc3ccccc3)C2)C(=O)N4)ccn1 — what was its IC50?
≤ 250 nM

----------
Entries annotated with measured IC50
Tested on: phospho-p90 RSK (RSK1 Thr359/Ser363) in A375 (Braf V600E) cells
Experiment: Phospho-p90 RSK ELISA using A375 (Braf V600E) cells
Format: cell-based
Conditions: Homo sapiens, A-375, 2 hours compound treatment, read-out: Cellular Phospho-p90RSK IC50
Procedure: In preparation for the assay, an ELISA plate with the pre-coated goat anti-mouse antibody (Thermo Scientific) was treated with a mouse anti-human RSK1 antibody (monoclonal, Invitrogen) at 1:800 dilution (150 ng/well) in PBS, and the plate was placed on a plate shaker at 4° C. overnight. […] Finally, 100 μL of TMB stop solution (Thermo Scientific) was added to each well and the absorbance is measured at 450 nm on a Tecan plate reader.

Sample Cc1cc(-c2n[nH]c3cc4c(cc23)CN(C(C)C2CCOCC2)C(=O)N4)ccn1 (stereo not drawn) [Example 262] — what was its IC50?
≤ 250 nM

Sample O=C1Nc2cc3[nH]nc(-c4ccnnc4)c3cc2CN1[C@@H]1CCCN(Cc2c(F)cccc2F)C1 [Example 122] — what was its IC50?
≤ 250 nM

Sample Cn1cc(-c2n[nH]c3cc4c(cc23)CN(Cc2ccc(F)c(Cl)c2)C(=O)N4)cn1 [Example 31] — what was its IC50?
≤ 250 nM

Sample Cc1cc(-c2n[nH]c3cc4c(cc23)CN(CC2CCOCC2)C(=O)N4)cc(C)n1 [Example 250] — what was its IC50?
≤ 250 nM

Sample Cc1cc(-c2n[nH]c3cc4c(cc23)CN([C@@H]2CCCN(CCc3cccc(Cl)c3)C2)C(=O)N4)ccn1 [Example 164] — what was its IC50?
> 1000 nM

Sample COc1ncc(-c2n[nH]c3cc4c(cc23)CN([C@@H]2CCCN(Cc3c(F)cccc3OC)C2)C(=O)N4)cn1 [Example 103] — what was its IC50?
≤ 250 nM

Sample O=C1Nc2cc3[nH]nc(-c4cn[nH]c4)c3cc2CN1Cc1ccc(F)c(Cl)c1 [Example 48] — what was its IC50?
250 to 1000 nM

Sample Cc1cc(-c2n[nH]c3cc4c(cc23)CN([C@@H]2CN(CC(F)(F)F)C[C@H]2C2CC2)C(=O)N4)ccn1 (mixture of isomers) [Example 319] — what was its IC50?
250 to 1000 nM

Sample Cc1cc(-c2n[nH]c3cc4c(cc23)CN([C@@H]2CCN(CCc3ccccc3)C2)C(=O)N4)ccn1 [Example 153] — what was its IC50?
≤ 250 nM

Sample Cc1cc(-c2n[nH]c3cc4c(cc23)CN([C@@H]2CCN(C)C2)C(=O)N4)ccn1 [Example 255] — what was its IC50?
> 1000 nM

Sample CC(c1ccccc1)c1cc2cc3c(-c4ccnc(N)c4)n[nH]c3cc2[nH]c1=O (stereo not drawn) [Example 344] — what was its IC50?
≤ 250 nM

Sample Cc1cc(-c2n[nH]c3cc4c(cc23)CN(C2CCC(F)(F)CC2)C(=O)N4)ccn1 [Example 224] — what was its IC50?
≤ 250 nM

Sample CC(c1ccccc1)c1cc2cc3c(-c4ccc(N5CCOCC5)nc4)n[nH]c3cc2[nH]c1=O (stereo not drawn) [Example 324] — what was its IC50?
≤ 250 nM

Sample Cc1cc(-c2n[nH]c3cc4c(cc23)CN([C@@H]2CCCN(C3CCC3)C2)C(=O)N4)ccn1 [Example 210] — what was its IC50?
> 1000 nM

Sample Cc1cc(-c2n[nH]c3cc4c(cc23)CN([C@@H]2CCN(CC(F)(F)F)C2)C(=O)N4)cc(C)n1 [Example 237] — what was its IC50?
≤ 250 nM
